Data provenance is patent US5861405A.

target: UniProtKB P30543; assay: Radioligand binding, [3H]CGS 21680, rat striatal A2a receptors; parameters: Rat cerebral cortical membranes and striatal membranes were prepared; from tissue; host or cells: rat striatal membranes; details: Table I; ratio of Ki values
Sequence (P30543 whole entry): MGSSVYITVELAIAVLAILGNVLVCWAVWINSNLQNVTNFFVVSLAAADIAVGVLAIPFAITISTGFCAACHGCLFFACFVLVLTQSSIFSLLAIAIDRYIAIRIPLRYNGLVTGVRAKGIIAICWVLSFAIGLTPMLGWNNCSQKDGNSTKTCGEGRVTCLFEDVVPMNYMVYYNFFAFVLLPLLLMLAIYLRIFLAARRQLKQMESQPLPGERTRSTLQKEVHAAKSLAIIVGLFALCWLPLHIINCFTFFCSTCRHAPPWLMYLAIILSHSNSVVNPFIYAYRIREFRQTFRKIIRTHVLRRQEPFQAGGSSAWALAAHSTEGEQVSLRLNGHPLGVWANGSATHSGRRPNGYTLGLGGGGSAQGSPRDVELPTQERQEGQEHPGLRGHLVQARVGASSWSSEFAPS
endpoint.name: A1/A2a ratio

Use these answered entries as a reference point.
CCCn1c(=O)c2[nH]c(/C=C/c3cc(F)cc(F)c3)nc2n(CCC)c1=O [Compound 54a] : 0.42
Cn1c(=O)c2c(nc(/C=C/c3cccc(NC(=O)CCC(=O)O)c3)n2C)n(C)c1=O [Compound 24] : 250
COc1cccc(/C=C/c2nc3c([nH]2)c(=O)n(C)c(=O)n3C)c1 [Compound 19a] : 4.8
Cn1c(=O)c2c(nc(/C=C/c3cccc([N+](=O)[O-])c3)n2C)n(C)c1=O [Compound 21b] : 11
COc1cccc(/C=C/c2nc3c([nH]2)c(=O)n(C)c(=O)n3C)c1OC [Compound 31a] : 2.7
CCCn1c(=O)c2[nH]c(/C=C/c3cccc(F)c3)nc2n(CCC)c1=O [Compound 50a] : 0.51
Cn1c(=O)c2c(nc(/C=C/c3cccc(N(C(=O)OC(C)(C)C)C(=O)OC(C)(C)C)c3)n2C)n(C)c1=O [Compound 26] : 15
COc1cc(/C=C/c2nc3c(c(=O)n(C)c(=O)n3C)n2C)cc(OC)c1OCc1ccccc1 [Compound 37] : 30

I: COc1ccc(/C=C/c2nc3c(c(=O)n(C)c(=O)n3C)n2C)c(OC)c1OC [Compound 43b]
II: COc1ccccc1/C=C/c1nc2c([nH]1)c(=O)n(C)c(=O)n2C [Compound 17a, 1,3-Dimethyl-8-(2-methoxystyryl)xanthine]
III: CN(C)c1ccc(/C=C/c2nc3c([nH]2)c(=O)n(C)c(=O)n3C)cc1 [Compound 30a]
IV: CCCn1c(=O)c2[nH]c(/C=C/c3ccc(OC)c(OC)c3OC)nc2n(CCC)c1=O [Compound 55a]
V: CCCn1c(=O)c2[nH]c(/C=C/c3cc(OC)c(OC)cc3OC)nc2n(CCC)c1=O [Compound 56a]
## Task Hey, quick one: sort these by A1/A2a ratio, largest value first please. Please respond by ranking the labels in the order requested.
## Result I, II, IV, V, III

A: Cn1c(=O)c2[nH]c(/C=C/c3ccccc3)nc2n(C)c1=O [Compound 15a]
B: Cn1c(=O)c2c(nc(/C=C/c3cccc(N)c3)n2C)n(C)c1=O [Compound 22b]
C: COc1ccc(/C=C/c2nc3c(c(=O)n(C)c(=O)n3C)n2C)cc1 [Compound 29b]
D: Cn1c(=O)c2[nH]c(/C=C/c3cccc(N)c3)nc2n(C)c1=O [Compound 22a, 1,3-Dimethyl-8-(3-aminostyryl)xanthine]
## Task hey, can you rank those molecules up there by A1/A2a ratio? biggest number first please Respond with an ordered listing of the labels, as requested.
## Result C, B, A, D
(C: 44, B: 30, A: 2.3, D: 1.4)

a: Cn1c(=O)c2[nH]c(/C=C/c3cccc(O)c3)nc2n(C)c1=O [Compound 18]
b: Cn1c(=O)c2c(nc(/C=C/c3cccc(I)c3)n2C)n(C)c1=O [Compound 28c]
## Task Field: lower A1/A2a ratio | Options: a / b Identify your selection by its label.
## Result a

---

target: rat A1 cortical receptors (Rattus norvegicus, UniProt P25099); construct: Rat cerebral cortical membranes and striatal membranes were prepared; from tissue; host or cells: rat cerebral cortex membranes; experiment: Radioligand binding, [3H]N6-phenylisopropyladenosine ([3H]PIA), rat cortical A1 receptors; details: Table I; vs [3H]PIA (1 nM), rat A1 receptors; read-out: Ki (A1)
Sequence (P25099 whole entry): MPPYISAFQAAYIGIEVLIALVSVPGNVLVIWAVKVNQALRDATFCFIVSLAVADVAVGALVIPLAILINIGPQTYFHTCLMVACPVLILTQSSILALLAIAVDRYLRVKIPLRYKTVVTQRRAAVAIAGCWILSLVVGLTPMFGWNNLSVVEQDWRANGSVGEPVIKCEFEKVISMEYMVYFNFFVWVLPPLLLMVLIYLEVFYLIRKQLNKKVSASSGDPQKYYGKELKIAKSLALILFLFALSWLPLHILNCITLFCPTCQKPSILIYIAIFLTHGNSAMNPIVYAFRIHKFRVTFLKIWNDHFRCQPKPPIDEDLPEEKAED
endpoint.name: Ki (µM)

Here are 3 molecules together with their reported answers.
CCCn1c(=O)c2[nH]c(/C=C/c3ccc(OC)c(OC)c3OC)nc2n(CCC)c1=O [Compound 55a] : 0.097
COc1cc(/C=C/c2nc3c(c(=O)n(C)c(=O)n3C)n2C)cc(OC)c1OC(C)=O [Compound 36] : 6.33
Cn1c(=O)c2c(nc(/C=C/c3cccc(C(F)(F)F)c3)n2C)n(C)c1=O [Compound 20b] : 3.33

A: COc1ccc(/C=C/c2nc3c([nH]2)c(=O)n(C)c(=O)n3C)cc1OC [Compound 32a]
B: CCCn1c(=O)c2[nH]c(/C=C/c3cccc(Cl)c3)nc2n(CCC)c1=O [Compound 51a]
## Task Which has the smaller recorded Ki, A or B ? Give the label of your selection.
## Result B
(B: 0.167 µM, A: 5.34 µM)

---

molecular target: UniProt:P30543; assay: Radioligand binding, [3H]CGS 21680, rat striatal A2a receptors; set-up: Rat cerebral cortical membranes and striatal membranes were prepared; from tissue; host or cells: rat striatal membranes; conditions: Table I; ratio of Ki values
endpoint.name: A1/A2a ratio
Field format: numeric only.

CCCn1c(=O)c2c(nc(/C=C/c3cc(OC)cc(OC)c3)n2C)n(CCC)c1=O [Compound 53b] : 110

## Task // fetch UniProt:P30543 A1/A2a ratio for CCCn1c(=O)c2c(nc(/C=C/c3ccc(OC)c(OC)c3OC)n2C)n(CCC)c1=O [Compound 55b]
## Result 5.5

## Task Enter reported A1/A2a ratio observed with UniProt:P30543 for CCCn1c(=O)c2[nH]c(/C=C/c3cc(OC)cc(OC)c3)nc2n(CCC)c1=O [Compound 53a]
## Result 3.0
